These entries and their values trace back to patent US20260327191A1.

system: GSK3A (Homo sapiens, UniProt P49840)
Sequence (P49840 whole entry): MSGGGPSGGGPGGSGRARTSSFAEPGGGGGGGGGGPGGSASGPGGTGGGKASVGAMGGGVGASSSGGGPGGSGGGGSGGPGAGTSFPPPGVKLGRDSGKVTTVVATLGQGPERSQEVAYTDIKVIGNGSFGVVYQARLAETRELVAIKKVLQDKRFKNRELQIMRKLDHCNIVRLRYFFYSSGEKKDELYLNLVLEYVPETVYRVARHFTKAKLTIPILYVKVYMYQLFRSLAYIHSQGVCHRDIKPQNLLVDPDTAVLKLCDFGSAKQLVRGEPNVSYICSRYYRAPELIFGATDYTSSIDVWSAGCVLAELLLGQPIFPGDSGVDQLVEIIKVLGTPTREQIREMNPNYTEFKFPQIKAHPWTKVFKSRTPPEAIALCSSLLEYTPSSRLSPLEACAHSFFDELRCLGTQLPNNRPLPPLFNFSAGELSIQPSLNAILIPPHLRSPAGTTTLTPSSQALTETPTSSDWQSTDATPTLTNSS
method: NanoBRET cellular target engagement assay, Nanoluc-GSK3A in HEK293 cells
condition info: NanoBRET GSK3α IC50, HEK293 cells, tracer K-8, 2 hours, 37° C
pIC50: −log10 of the molar value.
Give rule met when the value for pIC50 is at least 8. Give rule not met when it is less.

// below: answered molecules
[
  {
    "molecule": "CNC(C)c1cncc(NC(=O)c2c(N)ncn(-c3c(Cl)cc(Cl)cc3Cl)c2=O)c1 (single isomer, unassigned) [Example 12]",
    "label value": "rule met"
  },
  {
    "molecule": "Nc1ncn(-c2c(Cl)cccc2Cl)c(=O)c1C(=O)Nc1cccc([C@@H]2CNC(=O)CN2)c1 (single isomer, unassigned) [Example 190]",
    "label value": "rule not met"
  },
  {
    "molecule": "COCC(N)c1cncc(NC(=O)c2c(N)ncn(-c3c(Cl)cc(Cl)cc3Cl)c2=O)c1 (single isomer, unassigned) [Example 49]",
    "label value": "rule met"
  },
  {
    "molecule": "CCOc1cc(Cl)c(-n2cnc(N)c(C(=O)Nc3cncc(CNCCO)c3)c2=O)c(Cl)c1 [Example 26]",
    "label value": "rule met"
  },
  {
    "molecule": "CCOCc1cc(C)c(-n2cnc(N)c(C(=O)Nc3cncc([C@H]4CCCCN4)c3)c2=O)c(C)c1 [Example 131]",
    "label value": "rule met"
  },
  {
    "molecule": "Nc1ncn(-c2c(Cl)cc(OC3CC3)cc2Cl)c(=O)c1C(=O)Nc1cncc([C@@H]2CCCN2)c1 [Example 194]",
    "label value": "rule met"
  },
  {
    "molecule": "CCOc1cc(Cl)c(-n2cnc(N)c(C(=O)Nc3cncc(C(C)NC)c3)c2=O)c(Cl)c1 (single isomer, unassigned) [Example 24]",
    "label value": "rule met"
  },
  {
    "molecule": "COCc1cc(C)c(-n2cnc(N)c(C(=O)Nc3cncc4c3CCC4(C)N)c2=O)c(C)c1 (single isomer, unassigned) [Example 27]",
    "label value": "rule met"
  }
]

Item Nc1ncn(-c2c(Cl)cccc2Cl)c(=O)c1C(=O)Nc1cccc(C2CCCN2)c1F (single isomer, unassigned) [Example 168] with pIC50 of 8 or above?
rule not met

Item CCNCc1cncc(NC(=O)c2c(N)ncn(-c3c(Cl)cc(C(F)F)cc3Cl)c2=O)c1 [Example 14] with pIC50 of 8 or above?
rule met

Item CCOCc1cc(C)c(-n2cnc(N)c(C(=O)Nc3cncc(C4CCCCCN4)c3)c2=O)c(C)c1 (single isomer, unassigned) [Example 132] with pIC50 of 8 or above?
rule met

Item CCOC[C@@H](N)c1cncc(NC(=O)c2c(N)ncn(-c3c(C)cc(COC)cc3C)c2=O)c1 (single isomer, unassigned) [Example 177] with pIC50 of 8 or above?
rule met

Item CCOc1cc(Cl)c(-n2cnc(N)c(C(=O)Nc3cncc(C4(N)CCC4)c3)c2=O)c(Cl)c1 [Example 183] with pIC50 of 8 or above?
rule met

* * *

system: GSK3B (Homo sapiens)
Sequence (P49841 whole entry): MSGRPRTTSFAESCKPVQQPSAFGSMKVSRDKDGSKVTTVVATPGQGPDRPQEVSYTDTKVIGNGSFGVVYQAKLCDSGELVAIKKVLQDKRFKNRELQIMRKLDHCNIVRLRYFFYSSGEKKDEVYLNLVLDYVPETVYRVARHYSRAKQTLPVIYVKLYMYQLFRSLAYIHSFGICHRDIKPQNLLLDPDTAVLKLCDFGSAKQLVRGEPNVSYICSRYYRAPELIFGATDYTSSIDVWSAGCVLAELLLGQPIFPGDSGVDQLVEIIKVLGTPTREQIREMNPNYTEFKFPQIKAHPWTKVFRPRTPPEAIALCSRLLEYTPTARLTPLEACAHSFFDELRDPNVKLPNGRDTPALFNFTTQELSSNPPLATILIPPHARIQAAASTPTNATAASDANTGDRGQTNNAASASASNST
method: NanoBRET cellular target engagement assay, Nanoluc-GSK3B in HEK293 cells
Type: cell-based
Set-up: expressed in transfected cells
condition info: NanoBRET GSK3β IC50, HEK293 cells, tracer K-8, 2 hours, 37° C
parameter measured: IC50 (µM)
The answer is to be given in µM; state only the numeric part.

Recorded results for 3 molecules are shown here.
[
  {
    "molecule": "CCOc1cc(Cl)c(-n2cnc(N)c(C(=O)Nc3cncc(C(C)NC)c3)c2=O)c(Cl)c1 (single isomer, unassigned) [Example 24]",
    "IC50 (µM)": 0.147
  },
  {
    "molecule": "CCNCc1cncc(NC(=O)c2c(N)ncn(-c3c(Cl)cccc3Cl)c2=O)c1 [Example 5]",
    "IC50 (µM)": 0.383
  },
  {
    "molecule": "CNC(COC)c1cncc(NC(=O)c2c(N)ncn(-c3c(Cl)cc(C(F)(F)F)cc3Cl)c2=O)c1 (single isomer, unassigned) [Example 121]",
    "IC50 (µM)": 0.395
  }
]

Attention now turns to another entry.
Tell me the measured IC50 of COc1cc(Cl)c(-n2cnc(N)c(C(=O)Nc3cncc([C@@H]4CCCN4)c3)c2=O)c(Cl)c1 [Example 73] , please.
0.374

* * *

system: human GSK3α (Homo sapiens)
Construct: Full length human GSK3α or GSK3B expressed as N-terminal GST fusion proteins; GST (N); purchased Carna Biosciences (Japan); host or cells: baculovirus host
method: In vitro enzymatic activity assay, GSK3α
Type: biochemical
condition info: 1.0 mM ATP, 1.0 μM peptide substrate, 120 min, 25° C, read-out: Enzyme GSK3α (IC50)
pIC50: −log10 of the molar value.
Give yes (1) when the value for pIC50 is at least 8. Give no (0) when it is less.

[
  {
    "molecule": "COCc1cc(Cl)c(-n2cnc(N)c(C(=O)Nc3cncc(C(C)(C)N)c3)c2=O)c(Cl)c1 [Example 15]",
    "system": "human GSK3α (Homo sapiens)",
    "label value": "yes (1)"
  }
]

Item COc1cc(Cl)c(-n2cnc(N)c(C(=O)Nc3cncc(C(N)CC(F)F)c3)c2=O)c(Cl)c1 (single isomer, unassigned) [Example 82] with pIC50 of 8 or above?
yes (1)

Item CNCc1cncc(NC(=O)c2c(N)ncn(-c3c(C)cc(COC)cc3C)c2=O)c1 [Example 99] with pIC50 of 8 or above?
no (0)

* * *

system: GSK3A (Homo sapiens, UniProt P49840)
method: NanoBRET cellular target engagement assay, Nanoluc-GSK3A in HEK293 cells
condition info: NanoBRET GSK3α IC50, HEK293 cells, tracer K-8, 2 hours, 37° C
Protocol: In the assay, HEK293 cells stably expressing either Nanoluc-GSK3A or Nanoluc-GSK3B were maintained in culture media and seeded, using a multidrop dispenser, at a density of 5×10^3 cells per well in 384-well white plates with 100 ng/ml doxycycline (Sigma) overnight. Compound was first diluted in DMSO to generate a 9-point serial dilution then diluted to 10× final concentration in Opti-MEM™ (Gibco). […]
# Met = IC50 below 9 nM (exclusive); Not met = IC50 at/above 9 nM

[
  {
    "molecule": "CN[C@@H](COC)c1cncc(NC(=O)c2c(N)ncn(-c3c(Cl)cc(OC)cc3Cl)c2=O)c1 (single isomer, unassigned) [Example 80]",
    "system": "GSK3A (Homo sapiens, UniProt P49840)",
    "label value": "Met"
  }
]

# check: IC50 < 9 nM for COc1cc(Cl)c(-n2cnc(N)c(C(=O)Nc3cnc(F)c([C@@H]4CCCCN4)c3)c2=O)c(Cl)c1 (single isomer, unassigned) [Example 76]
Not met

# check: IC50 < 9 nM for COc1cc(Cl)c(-n2cnc(N)c(C(=O)Nc3cncc(C4(N)CCC4)c3)c2=O)c(Cl)c1 [Example 179]
Met

# check: IC50 < 9 nM for COc1cc(C)c(-n2cnc(N)c(C(=O)Nc3cccc([C@@H]4CCCN4)c3)c2=O)c(Cl)c1 (atropisomer, axis not shown) [Example 36]
Met

# check: IC50 < 9 nM for Nc1ncn(-c2c(Cl)cccc2Cl)c(=O)c1C(=O)Nc1cccc([C@@H]2COCCCN2)c1 (single isomer, unassigned) [Example 211]
Met

* * *

system: human GSK3α (Homo sapiens, UniProt P49840)
Construct: Full length human GSK3α or GSK3B expressed as N-terminal GST fusion proteins; GST (N); purchased Carna Biosciences (Japan); host or cells: baculovirus host
Sequence (P49840 whole entry, the tested form may be a part): as the sequence (P49840 whole entry) above
method: In vitro enzymatic activity assay, GSK3α
Assay type: biochemical
condition info: 1.0 mM ATP, 1.0 μM peptide substrate, 120 min, 25° C, read-out: Enzyme GSK3α (IC50)
Quick reference for IC50 among some compounds
Report field: quantity (unit follows the number).

Recorded results for 7 compounds are shown here.
[
  {
    "compound": "CCOc1cc(Cl)c(-n2cnc(N)c(C(=O)Nc3cncc(C(N)CC(F)F)c3)c2=O)c(Cl)c1 (single isomer, unassigned) [Example 143]",
    "IC50": "4.9 nM"
  },
  {
    "compound": "CCOCC(N)c1cncc(NC(=O)c2c(N)ncn(-c3c(Cl)cc(OCC)cc3Cl)c2=O)c1 (single isomer, unassigned) [Example 140]",
    "IC50": "24.2 nM"
  },
  {
    "compound": "Nc1ncn(-c2c(Cl)cc(C(F)F)cc2Cl)c(=O)c1C(=O)Nc1cncc([C@@H]2CCCCN2)c1 [Example 56]",
    "IC50": "5.7 nM"
  },
  {
    "compound": "COCc1cc(C)c(-n2cnc(N)c(C(=O)Nc3cncc(C4CCCCCN4)c3)c2=O)c(C)c1 (single isomer, unassigned) [Example 100]",
    "IC50": "8.2 nM"
  },
  {
    "compound": "CCOc1cc(Cl)c(-n2cnc(N)c(C(=O)Nc3cncc(C(COC)NC)c3)c2=O)c(Cl)c1 (single isomer, unassigned) [Example 141]",
    "IC50": "4.1 nM"
  },
  {
    "compound": "NCc1cncc(NC(=O)c2c(N)ncn(-c3c(Cl)cc(OC4CC4)cc3Cl)c2=O)c1 [Example 52]",
    "IC50": "4.4 nM"
  },
  {
    "compound": "COc1cc(C)c(-n2cnc(N)c(C(=O)Nc3cncc([C@H]4CCCCN4)c3)c2=O)c(C)c1 [Example 205]",
    "IC50": "5 nM"
  }
]

Attention now turns to another entry.
Tell me the measured IC50 of CCNCc1cncc(NC(=O)c2c(N)ncn(-c3c(Cl)cc(-c4ncco4)cc3Cl)c2=O)c1 [Example 201] , please.
13.7 nM
